Taken from paper PMC6437269.

# maps each entry to its MIC
- Test system: E. coli MG1655 (MP100)
- test details: microbe, parasite or virus in culture
- Type: cell-based, Escherichia coli
- protocol conditions: Escherichia coli, MG1655; Table 6; MP100; read-out: MIC
Reply numerically in µg/mL, unit not repeated.

## Input Please report the recorded MIC for C[C@@H](O)[C@H]1C(=O)N2C(C(=O)O)=C(S[C@@H]3CN[C@H](C(=O)Nc4cccc(C(=O)O)c4)C3)[C@H](C)[C@H]12 [ETP, ertapenem] .
## Output 0.015

## Input What about C[C@@H](O)[C@H]1C(=O)N2C(C(=O)O)=C(S[C@@H]3CN[C@H](CNS(N)(=O)=O)C3)[C@H](C)[C@H]12 [DOR, doripenem] ?
## Output 0.015

## Input Same read-out for CO/N=C(\C(=O)N[C@@H]1C(=O)N2C(C(=O)[O-])=C(C[N+]3(C)CCCC3)CS[C@H]12)c1csc(N)n1 [FEP, cefepime] ?
## Output 0.06
